Sourced from PubChem BioAssay (NCI)

system: UACC-257 melanoma; test: NCI tumour cell line growth inhibition, 48 h
Measured Property: TGI

compound=NC(N)=NS(=O)(=O)c1ccc(Nc2c3ccccc3nc3c(C(=O)NNCCO)cccc23)cc1 assay_value="> 1 µM"
compound=NCCOc1ncccc1/C=C1\c2ccccc2-c2ccc(F)cc21 assay_value="3.34 µM"
compound=CC(C)OC(=O)C1=C2c3ncccc3C(=O)N2[C@@H](Cl)[C@@H](Cl)[C@@H]1Cl assay_value="> 100 µM"
compound="CC(=O)OCC1OC(n2c(-c3ccc(C)cc3)cc(-c3ccco3)c(C#N)c2=S)C(OC(C)=O)C(OC(C)=O)C1OC(C)=O (centres undefined)" assay_value="> 100 µM"
compound=Cc1cccc2c(C(=O)O[C@H](C(N)=O)[C@]3(C)CO3)cccc12 assay_value="> 41.8 µM"
compound=COc1cc(Nc2cnc3cc(N)ccc3n2)cc(OC)c1OC assay_value="> 100 µM"
compound=O=C(O/N=C1/CCCC/C1=C\c1ccccc1)c1ccc(Cl)c(Cl)c1 assay_value="> 100 µM"
compound=COc1ccc(CCn2c3c(c4c(O)cccc42)C(=O)c2ccccc2-3)cc1OC assay_value="98.6 µM"
compound="O=C(O)CNC(=O)C(CSC(=O)OCC1c2ccccc2-c2ccccc21)NC(=O)CCC(NC(=O)OCC1c2ccccc2-c2ccccc21)C(=O)O (centres undefined)" assay_value="> 100 µM"

###

system: LOX IMVI melanoma; assay: NCI tumour cell line growth inhibition, 48 h
# TGI values compiled below
Measured Property: TGI

compound=CCN1CCC(Oc2c(C#N)ncc3[nH]c4ncccc4c23)CC1 subject_of_test="LOX IMVI melanoma" measured_property=TGI assay_value="> 50 µM"
compound="CCCC(c1nnnn1C1CCCCC1)N1CCN(C(=O)c2ccco2)CC1 (stereo unspecified)" subject_of_test="LOX IMVI melanoma" measured_property=TGI assay_value="> 100 µM"
compound="C=CCNC(=O)N1CC(C)C(=O)Nc2ccccc21 (stereo unspecified)" subject_of_test="LOX IMVI melanoma" measured_property=TGI assay_value="> 100 µM"
compound=COc1cc(/C=N/Nc2ncnc3[nH]ncc23)ccc1O subject_of_test="LOX IMVI melanoma" measured_property=TGI assay_value="> 25 µM"
compound=CN(C)Cc1cc(/C(=C(\C#N)c2ccccc2)c2ccc(O)cc2)ccc1O subject_of_test="LOX IMVI melanoma" measured_property=TGI assay_value="26.8 µM"
compound=O=C(N/N=C(/COc1ccccc1Cl)N=Cc1cccnc1)c1ccncc1 subject_of_test="LOX IMVI melanoma" measured_property=TGI assay_value="> 100 µM"
compound=Cc1nc2cc([N+](=O)[O-])ccc2c(NCCCN(C)C)c1C subject_of_test="LOX IMVI melanoma" measured_property=TGI assay_value="36 µM"
compound=COC(=O)/C(C#N)=C(\Nc1ccccc1)N1CCCC1 subject_of_test="LOX IMVI melanoma" measured_property=TGI assay_value="> 100 µM"
compound="CC(=O)OC1COC(N2CCc3ccccc32)C(OC(C)=O)C1OC(C)=O (stereo unspecified)" subject_of_test="LOX IMVI melanoma" measured_property=TGI assay_value="> 100 µM"
compound="CC1CSC(=S)N1C(=O)N1C(=S)SCC1C (stereo unspecified)" subject_of_test="LOX IMVI melanoma" measured_property=TGI assay_value="36.4 µM"
compound=O=C(NCCCCNC(=O)OCc1ccc2c(Cl)cc(Cl)c(O)c2n1)OCc1ccc2c(Cl)cc(Cl)c(O)c2n1 subject_of_test="LOX IMVI melanoma" measured_property=TGI assay_value="> 100 µM"
